- ASSAY COMMENT: Biodistribution (γ-counter)
- Format: in vivo, BALB/C nude mice
- ASSAY CONDITIONS: male, BALB/C nude, mouse, muscle, iv, total radioactivity, 90 min p.i.; mean ± SD, n = 3; read-out: Muscle uptake
Peptide text beside a SMILES is read from it. * marks the point of attachment. NOTA = O=C(O)CN1CCN(CC(=O)O)CCN(CC(=O)*)CC1; AEEEA = NCCOCCOCCOCC(=O)O

COMPOUND	tissue uptake at 1.5 h / %ID/g
CC[C@H](C)[C@H](NC(=O)[C@H](CCCNC(=N)N)NC(=O)CNC(=O)[C@H](CCC(=O)O)NC(=O)[C@H](CC(N)=O)NC(=O)[C@H](Cc1ccc(O)cc1)NC(=O)[C@H](CCCNC(=N)N)NC(=O)[C@H](Cc1ccc(O)cc1)NC(=O)[C@H](Cc1c[nH]cn1)NC(=O)COCCOCCOCCNC(=O)CN1CCN(CC(=O)O)CCN(CC(=O)O)CC1)C(=O)N[C@@H](CCCNC(=N)N)C(=O)N[C@@H](CC(N)=O)C(=O)O [[^68Ga]Ga-HN11-1, metal not drawn] ({NOTA-AEEEA}-HYRYNEGRIRN-OH)	0.15
